Target: furin, P09958;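 also: purified furin at 1:10 enzyme:substrate in 50 mM HEPES pH 7.5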
Sequence (P09958 whole entry): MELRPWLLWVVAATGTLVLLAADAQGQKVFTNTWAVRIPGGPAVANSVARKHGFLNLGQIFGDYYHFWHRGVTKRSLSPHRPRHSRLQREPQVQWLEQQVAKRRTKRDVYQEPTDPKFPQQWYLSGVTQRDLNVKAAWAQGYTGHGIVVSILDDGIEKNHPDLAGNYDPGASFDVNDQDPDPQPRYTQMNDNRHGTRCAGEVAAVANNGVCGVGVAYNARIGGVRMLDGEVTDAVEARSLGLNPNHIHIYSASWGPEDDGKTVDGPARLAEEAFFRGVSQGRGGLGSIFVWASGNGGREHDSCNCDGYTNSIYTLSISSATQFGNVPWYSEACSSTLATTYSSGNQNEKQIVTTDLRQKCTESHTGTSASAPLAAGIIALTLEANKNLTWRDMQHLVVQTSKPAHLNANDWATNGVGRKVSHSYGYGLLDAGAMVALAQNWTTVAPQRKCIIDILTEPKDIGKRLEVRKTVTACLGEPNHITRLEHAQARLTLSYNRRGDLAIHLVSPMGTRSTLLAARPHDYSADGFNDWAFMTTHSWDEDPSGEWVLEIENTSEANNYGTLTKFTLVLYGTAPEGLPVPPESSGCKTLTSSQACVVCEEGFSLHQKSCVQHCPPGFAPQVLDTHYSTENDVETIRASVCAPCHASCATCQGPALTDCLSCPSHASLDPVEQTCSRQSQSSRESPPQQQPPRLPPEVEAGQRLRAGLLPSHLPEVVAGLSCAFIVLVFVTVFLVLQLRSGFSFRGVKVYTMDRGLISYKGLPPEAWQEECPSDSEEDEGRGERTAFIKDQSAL
Assay: furin cleavage Z-score vs untreated control; higher = more cleavage, active = 3.5 or more, inactive = 1 or less, 8 variable residues between constant flanks
Settings: 15 min
This is one part of the list. No count for the full screen is at hand.
Quick rule for you: furin cleavage Z-score at -0.01 or higher means MET, lower means NOT MET.

Query Sequence	Label Value
CAWREVPCHRAGNASASA [HC2428]	MET
CARLARTCGRAGNASASA [FS-2985]	MET
CARLRRMNGNAGNASASA [FS-2994]	NOT MET
CASTPCSGSWAGNASASA [HC1837]	NOT MET
CARRRRPERGAGNASASA [FS-495]	MET
CACGSVFLVGAGNASASA [HC301]	NOT MET
CAVTSPLTTSAGNASASA [HC1059]	NOT MET

Source listed as the supplement of paper PMC3545927.
